- system: AAD-13 (v2) (Sphingobium herbicidovorans, UniProt Q700X4)
- Construct: His tag (C); made in house; host or cells: E. coli BL-21, pET-26b(+)
- Sequence (Q700X4 other isoform, or with tags, fused parts or gaps): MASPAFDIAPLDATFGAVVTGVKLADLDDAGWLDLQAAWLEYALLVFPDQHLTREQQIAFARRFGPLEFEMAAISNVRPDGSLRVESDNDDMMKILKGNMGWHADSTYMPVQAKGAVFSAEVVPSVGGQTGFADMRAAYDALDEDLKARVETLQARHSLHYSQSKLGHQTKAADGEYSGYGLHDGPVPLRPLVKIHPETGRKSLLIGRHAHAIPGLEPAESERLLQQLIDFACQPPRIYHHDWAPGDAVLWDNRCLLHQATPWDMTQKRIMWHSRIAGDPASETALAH
- Type: biochemical
- measurement_parameters: substrate 1 mM; rate as percentage of 2,4-D rate in same sample set; propionate rates divided by two
Flag rule - % of 24D activity less than 60% flags fulfilled; the remaining entries get not fulfilled.

Solved cases below.
# compound, category
data = [
    ("C=C(C)CCOCC(=O)O [compound 571320]", "fulfilled"),
    ("C[C@@H](Oc1ccc(Cl)cc1Cl)C(=O)O [R-dichloroprop, R-dichlorprop]", "fulfilled"),
    ("Nc1c(Cl)ccc(OCC(=O)O)c1Cl [3-amino 24D]", "not fulfilled"),
    ("O=C(O)CCCOc1ccc(Cl)cc1Cl [24DB]", "fulfilled"),
    ("O=C(O)COC(c1ccccc1)C(F)(F)F (stereo not drawn) [compound 470901]", "fulfilled"),
]

Query :: Hello, I'm reviewing records and need to know if % of 24D activity of CC(Oc1ncc(Cl)cc1Cl)C(=O)O (stereo not drawn) [compound 66357] is below 60%. Could you check?
Result :: fulfilled

Query :: Hello, I'm reviewing records and need to know if % of 24D activity of CC(Oc1nn(-c2ccccc2)c(-c2ccccc2)c1Cl)C(=O)O (stereo not drawn) [compound 657338] is below 60%. Could you check?
Result :: fulfilled

Query :: Hello, I'm reviewing records and need to know if % of 24D activity of CCCC(Oc1cc(Cl)c(Cl)cc1Cl)C(=O)O (stereo not drawn) [compound 188495] is below 60%. Could you check?
Result :: fulfilled
